Data credit: PubChem BioAssay AID1159585

Answer each item with its documented pIC50.
# experimental.system: Calcium-dependent protein kinase 1 (Plasmodium falciparum (isolate 3D7))
# experiment.description: PfCDPK1 kinase inhibitors, biochemical, TCAMS library (AID 1159585);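 also: inhibitors leave more ATP so luminescence rises with inhibition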
# measurement.setup: recombinant PfCDPK1, Kinase-Glo ATP depletion luminescence
Give bare numbers, as −log10 of the molar value.

CS(=O)(=O)Cc1ccc(Nc2nccc(-c3c(-c4cccc(NC(=O)c5c(F)cccc5F)c4)nn4ccccc34)n2)cc1    7.70

Can you give me pIC50 for all of these, one by one?
1. Cc1cc(F)ccc1-c1nc(Nc2ccncc2)c2ccn(C)c2n1
2. CCn1c(-c2nonc2N)nc2c(-c3cccc(NC(=O)Nc4cccc(Cl)c4)c3)ncc(OCCCN)c21
3. CC(C)(CNCc1ccc(OC(F)(F)F)cc1)c1nc(-c2ccc(Cl)c(O)c2)c(-c2ccncc2)[nH]1

1. 7.40
2. 6.42
3. 6.36
